Taken from ChEMBL document CHEMBL4706664.

# METHOD_DESCRIPTION: Cytotoxicity against ABCC1 over expressing human NCI-H69AR cells assessed as reduction in cell viability measured after 72 hrs by MTT assay
# Format: ADME, cell-based
# CONDITION_INFO: ABCC1 overexpressing NCI-H69AR cells
READOUT_NAME: GI50 at 72 h (µM)
Respond with the bare value in µM.

- CCCNc1cc(Nc2ccc(C#N)cc2)nc(-c2ccccc2)n1: 23

*Q* Reported GI50 at 72 h, compound N#Cc1ccc(Nc2cc(Nc3cccc(O)c3)nc(-c3ccccc3)n2)cc1 : ____
*A* 11

*Q* Reported GI50 at 72 h, compound CC(C)Nc1cc(Nc2ccc(C#N)cc2)nc(-c2ccccc2)n1 : ____
*A* 21.4

*Q* Reported GI50 at 72 h, compound N#Cc1ccc(Nc2cc(Nc3ccc(O)cc3)nc(-c3ccccc3)n2)cc1 : ____
*A* 13.7

----------
molecules and their reported GI50 at 72 h
# METHOD_DESCRIPTION: Cytotoxicity against wild-type MDCK-II cells assessed as reduction in cell viability measured after 72 hrs by MTT assay
# Type: cell-based, Canis lupus familiaris
# CONDITION_INFO: dog
Respond with the bare value in µM.

Past entries and their recorded results:
* N#Cc1ccc(Nc2cc(Nc3ccccc3O)nc(-c3ccccc3)n2)cc1 | 4.23
* N#Cc1ccc(Nc2cc(NCc3cccnc3)nc(-c3ccccc3)n2)cc1 | 7.47
* N#Cc1ccc(Nc2cc(NCCCc3ccccc3)nc(-c3ccccc3)n2)cc1 | 5.03
* N#Cc1ccc(Nc2cc(-c3ccccc3)nc(-c3ccccc3)n2)cc1 | 25.1
* CCCNc1cc(Nc2ccc(C#N)cc2)nc(-c2ccccc2)n1 | 8.34

*Q* Reported GI50 at 72 h, molecule CCCCNc1cc(Nc2ccc(C#N)cc2)nc(-c2ccccc2)n1 : ____
*A* 8.32

----------
# MEASUREMENT_TARGET: UniProtKB Q9UNQ0
# Sequence (Q9UNQ0 whole entry): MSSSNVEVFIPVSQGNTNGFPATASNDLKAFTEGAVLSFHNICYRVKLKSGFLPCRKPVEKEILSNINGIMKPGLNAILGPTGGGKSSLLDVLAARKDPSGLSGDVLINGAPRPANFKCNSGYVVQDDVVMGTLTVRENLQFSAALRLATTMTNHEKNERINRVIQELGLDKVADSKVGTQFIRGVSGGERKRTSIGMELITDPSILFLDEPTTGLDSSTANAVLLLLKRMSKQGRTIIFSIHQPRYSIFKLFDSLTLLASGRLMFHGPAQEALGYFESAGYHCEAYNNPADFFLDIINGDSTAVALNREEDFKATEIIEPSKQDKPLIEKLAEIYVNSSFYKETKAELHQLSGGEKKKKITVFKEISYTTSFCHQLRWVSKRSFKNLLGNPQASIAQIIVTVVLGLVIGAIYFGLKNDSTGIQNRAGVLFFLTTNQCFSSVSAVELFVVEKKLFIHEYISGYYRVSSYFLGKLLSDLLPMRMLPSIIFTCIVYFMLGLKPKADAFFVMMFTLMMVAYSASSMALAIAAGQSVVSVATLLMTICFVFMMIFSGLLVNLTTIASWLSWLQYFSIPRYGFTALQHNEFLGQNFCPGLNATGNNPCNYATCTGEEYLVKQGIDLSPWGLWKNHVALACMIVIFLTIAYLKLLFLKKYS
# METHOD_DESCRIPTION: Inhibition of ABCG2 (unknown origin) expressed in MDCK-II cells assessed as reduction in pheophorbide A efflux measured after 2 hrs by flow cytometry relative to Ko143
# Type: cell-based
# CONDITION_INFO: MDCK-II cells expressing ABCG2, probe pheophorbide A, read-out: Imax
READOUT_NAME: Emax at 2 h (%)
Respond with the bare value in %.

Past entries and their recorded results:
• N#Cc1ccc(Nc2cc(Nc3ccccc3)nc(-c3ccccc3)n2)cc1 = 84
• N#Cc1ccc(Nc2cc(NCc3cccnc3)nc(-c3ccccc3)n2)cc1 = 91
• N#Cc1ccc(Nc2cc(NCc3ccccc3)nc(-c3ccccc3)n2)cc1 = 99
• Cc1cc(Nc2ccc(C#N)cc2)nc(-c2ccccc2)n1 = 87
• N#Cc1ccc(Nc2cc(Nc3ccc(C#N)cc3)nc(-c3ccccc3)n2)cc1 = 60

Next, consider the following compound.
*Q* Reported Emax at 2 h, compound CCCNc1cc(Nc2ccc(C#N)cc2)nc(-c2ccccc2)n1 : ____
*A* 89

----------
molecules and their reported pIC50
# MEASUREMENT_TARGET: UniProt P08183
# Sequence (P08183 whole entry): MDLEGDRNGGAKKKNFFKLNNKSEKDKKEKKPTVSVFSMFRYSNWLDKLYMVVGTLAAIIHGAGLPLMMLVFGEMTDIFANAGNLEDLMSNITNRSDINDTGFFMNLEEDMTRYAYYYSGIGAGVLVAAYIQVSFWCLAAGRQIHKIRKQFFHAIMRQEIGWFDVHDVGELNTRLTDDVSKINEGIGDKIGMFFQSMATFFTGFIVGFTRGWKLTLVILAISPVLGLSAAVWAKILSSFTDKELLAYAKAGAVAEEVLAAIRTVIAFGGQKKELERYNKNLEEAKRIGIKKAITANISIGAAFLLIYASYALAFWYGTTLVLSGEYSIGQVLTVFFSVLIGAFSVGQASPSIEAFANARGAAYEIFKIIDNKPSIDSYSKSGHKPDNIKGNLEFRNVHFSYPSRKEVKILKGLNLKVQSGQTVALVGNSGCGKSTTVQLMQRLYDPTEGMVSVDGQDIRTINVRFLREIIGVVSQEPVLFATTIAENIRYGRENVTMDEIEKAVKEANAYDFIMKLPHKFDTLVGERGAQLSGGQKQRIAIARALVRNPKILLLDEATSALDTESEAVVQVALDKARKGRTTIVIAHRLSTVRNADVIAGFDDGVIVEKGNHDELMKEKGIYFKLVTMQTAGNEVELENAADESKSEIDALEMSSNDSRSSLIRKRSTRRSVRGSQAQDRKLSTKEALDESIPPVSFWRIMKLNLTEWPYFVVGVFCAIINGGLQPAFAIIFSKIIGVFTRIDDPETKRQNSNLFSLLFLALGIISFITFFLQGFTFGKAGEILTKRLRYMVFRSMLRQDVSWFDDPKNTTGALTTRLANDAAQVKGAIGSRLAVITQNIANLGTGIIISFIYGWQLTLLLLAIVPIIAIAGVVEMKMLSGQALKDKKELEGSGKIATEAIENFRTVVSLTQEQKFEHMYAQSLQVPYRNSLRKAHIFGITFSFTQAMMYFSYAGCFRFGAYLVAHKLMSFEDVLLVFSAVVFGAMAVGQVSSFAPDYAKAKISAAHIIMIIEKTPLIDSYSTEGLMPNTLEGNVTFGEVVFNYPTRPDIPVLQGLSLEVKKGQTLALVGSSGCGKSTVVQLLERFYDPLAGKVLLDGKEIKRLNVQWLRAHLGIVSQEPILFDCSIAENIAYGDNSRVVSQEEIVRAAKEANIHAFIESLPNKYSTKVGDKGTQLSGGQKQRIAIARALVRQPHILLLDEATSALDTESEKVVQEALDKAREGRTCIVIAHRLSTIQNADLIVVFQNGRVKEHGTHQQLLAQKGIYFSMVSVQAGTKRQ
# METHOD_DESCRIPTION: Inhibition of ABCB1 (unknown origin) expressed in human A2780 ADR cells assessed as reduction in calcein AM efflux preincubated for 30 mins followed by calcein AM addition and measured at 60 secs interval for 1 hr by fluorescence assay
# Format: cell-based
# CONDITION_INFO: read-out: IC50
pIC50 field: float, defined as -log10 of concentration (mol/L).

Past entries and their recorded results:
- CC(C)Nc1cc(Nc2ccc(C#N)cc2)nc(-c2ccccc2)n1: 5.19
- N#Cc1ccc(Nc2cc(Nc3ccccc3O)nc(-c3ccccc3)n2)cc1: 5.53
- N#Cc1ccc(Nc2cc(Nc3ccc(O)cc3)nc(-c3ccccc3)n2)cc1: 5.34
- CNc1cc(Nc2ccc(C#N)cc2)nc(-c2ccccc2)n1: 4.59
- N#Cc1ccc(Nc2cc(NCc3ccccc3)nc(-c3ccccc3)n2)cc1: 5.35

*Q* Reported pIC50, molecule CCCCNc1cc(Nc2ccc(C#N)cc2)nc(-c2ccccc2)n1 : ____
*A* 5.18

*Q* Reported pIC50, molecule N#Cc1ccc(Nc2cc(NCc3cccnc3)nc(-c3ccccc3)n2)cc1 : ____
*A* 5.27

*Q* Reported pIC50, molecule N#Cc1ccc(Nc2cc(NCc3ccccn3)nc(-c3ccccc3)n2)cc1 : ____
*A* 5.47

*Q* Reported pIC50, molecule N#Cc1ccc(Nc2cc(Nc3cccc(O)c3)nc(-c3ccccc3)n2)cc1 : ____
*A* 5.45

*Q* Reported pIC50, molecule N#Cc1ccc(Nc2cc(Nc3ccc(C#N)cc3)nc(-c3ccccc3)n2)cc1 : ____
*A* 5.17

*Q* Reported pIC50, molecule CCCNc1cc(Nc2ccc(C#N)cc2)nc(-c2ccccc2)n1 : ____
*A* 5.23

*Q* Reported pIC50, molecule N#Cc1ccc(Nc2cc(NCc3ccncc3)nc(-c3ccccc3)n2)cc1 : ____
*A* 5.37

*Q* Reported pIC50, molecule N#Cc1ccc(Nc2cc(Nc3ccccc3)nc(-c3ccccc3)n2)cc1 : ____
*A* 5.27

----------
# System: ABCB1
# METHOD_DESCRIPTION: Therapeutic index, ratio of GI50 for cytotoxicity against ABCB1 over expressing human A2780 ADR cells to IC50 for inhibition of ABCB1 (unknown origin) expressed in human A2780 ADR cells
# CONDITION_INFO: ABCB1 overexpressing A2780 ADR cells
READOUT_NAME: selectivity ratio
Reply briefly: the number, and no unit.

*Q* Lab note: need selectivity ratio with ABCB1 for entry N#Cc1ccc(Nc2cc(Nc3ccccc3O)nc(-c3ccccc3)n2)cc1 , please look it up.
*A* 3.34

----------
# METHOD_DESCRIPTION: Cytotoxicity against wild-type MDCK-II cells assessed as reduction in cell viability measured after 72 hrs by MTT assay
# Format: cell-based, Canis lupus familiaris
# CONDITION_INFO: dog
READOUT_NAME: log10(GI50 at 72 h) (log10 of the value in µM)
// stored as log10 of GI50 at 72 h expressed in µM

Past entries and their recorded results:
• N#Cc1ccc(Nc2cc(Nc3cccc(O)c3)nc(-c3ccccc3)n2)cc1 = 0.72
• N#Cc1ccc(Nc2cc(Nc3ccc(C#N)cc3)nc(-c3ccccc3)n2)cc1 = 0.85
• CC(C)Nc1cc(Nc2ccc(C#N)cc2)nc(-c2ccccc2)n1 = 0.75
• CNc1cc(Nc2ccc(C#N)cc2)nc(-c2ccccc2)n1 = 1.53
• N#Cc1ccc(Nc2cc(Nc3ccc(O)cc3)nc(-c3ccccc3)n2)cc1 = 0.72
• N#Cc1ccc(Nc2cc(NCc3ccccn3)nc(-c3ccccc3)n2)cc1 = 0.97
• CCc1c2c(nc3ccc(O)cc13)-c1cc3c(c(=O)n1C2)COC(=O)[C@]3(O)CC [7-ETHYL-10-HYDROXYCAMPTOTHECIN] = -0.86
• N#Cc1ccc(Nc2cc(NCc3ccncc3)nc(-c3ccccc3)n2)cc1 = 1.03

*Q* Reported log10(GI50 at 72 h), compound N#Cc1ccc(Nc2cc(NCc3ccccc3)nc(-c3ccccc3)n2)cc1 : ____
*A* 0.62

*Q* Reported log10(GI50 at 72 h), compound N#Cc1ccc(Nc2cc(NCCCCc3ccccc3)nc(-c3ccccc3)n2)cc1 : ____
*A* 1.03

*Q* Reported log10(GI50 at 72 h), compound N#Cc1ccc(Nc2cc(Nc3ccccc3)nc(-c3ccccc3)n2)cc1 : ____
*A* 0.69

----------
# Tested on: ABCG2
# METHOD_DESCRIPTION: Therapeutic index, ratio of GI50 for cytotoxicity against ABCG2 overexpressing MDCK-II cells to IC50 for inhibition of ABCG2 (unknown origin) expressed in MDCK-II cells
# CONDITION_INFO: dog
READOUT_NAME: selectivity ratio
Reply briefly: the number, and no unit.

Past entries and their recorded results:
* N#Cc1ccc(Nc2cc(Nc3ccccc3O)nc(-c3ccccc3)n2)cc1 | 20.7
* N#Cc1ccc(Nc2cc(Nc3ccccc3)nc(-c3ccccc3)n2)cc1 | 24
* N#Cc1ccc(Nc2cc(NCCCCc3ccccc3)nc(-c3ccccc3)n2)cc1 | 65
* N#Cc1ccc(Nc2cc(NCCCc3ccccc3)nc(-c3ccccc3)n2)cc1 | 38.4

*Q* Reported selectivity ratio, compound N#Cc1ccc(Nc2cc(NCc3cccnc3)nc(-c3ccccc3)n2)cc1 : ____
*A* 14.9

*Q* Reported selectivity ratio, compound CCCCNc1cc(Nc2ccc(C#N)cc2)nc(-c2ccccc2)n1 : ____
*A* 12.2

*Q* Reported selectivity ratio, compound N#Cc1ccc(Nc2cc(NCc3ccncc3)nc(-c3ccccc3)n2)cc1 : ____
*A* 23.1

*Q* Reported selectivity ratio, compound N#Cc1ccc(Nc2cc(NCc3ccccc3)nc(-c3ccccc3)n2)cc1 : ____
*A* 38

*Q* Reported selectivity ratio, compound N#Cc1ccc(Nc2cc(Nc3ccc(C#N)cc3)nc(-c3ccccc3)n2)cc1 : ____
*A* 58.7

*Q* Reported selectivity ratio, compound N#Cc1ccc(Nc2cc(-c3ccccc3)nc(-c3ccccc3)n2)cc1 : ____
*A* 4.96

*Q* Reported selectivity ratio, compound N#Cc1ccc(Nc2cc(NCc3ccccn3)nc(-c3ccccc3)n2)cc1 : ____
*A* 40.8

*Q* Reported selectivity ratio, compound CNc1cc(Nc2ccc(C#N)cc2)nc(-c2ccccc2)n1 : ____
*A* 180
